The origin of these recorded values is ChEMBL document CHEMBL1201862.

System: KM12
Test: NCI tumour cell line growth inhibition, 48 h
Calls of active or inactive are those of the source. No stated cut-off is given here; in the data, active = GI50 up to about 1.1 µM and inactive = higher.
Possible outcomes: active, inactive

Molecule	Classification
COc1nc(N)nc2c1n(C)c[n+]2C	inactive
O=C1CC(c2cccc([N+](=O)[O-])c2)C2(C(=O)NC(=O)NC2=O)C(c2cccc([N+](=O)[O-])c2)C1 (centres undefined)	inactive
O=S(=O)(/N=S(/Nc1ccccc1)C(Cl)Cl)c1ccccc1 (centres undefined)	inactive
CN(C)/C=C/c1c2c(nc3ccccc13)C(=O)c1ccccc1C2=O	inactive
CC(=O)OCC1OC(n2nc(Cc3ccccc3)c(=S)[nH]c2=S)C(OC(C)=O)C(OC(C)=O)C1OC(C)=O (centres undefined)	inactive
Cc1nc2ccccc2c(=O)[nH]1	inactive
CC(C)(CN1CCCCC1)C(=O)/C=C/c1ccc(/C=C/C(=O)C(C)(C)CN2CCCCC2)cc1	active
COC1CCC(OC2CC(C3(C)CCC4(CC(O)C(C)C(C(C)/C=C(\C)C(=O)C(C)CC(C)C(=O)O)O4)O3)OC3(OC(C4OC(O)(CO)C(C)CC4C)CC3C)C2C)OC1C (centres undefined)	active
Clc1ccc(Nc2ncco2)cc1Cl	inactive
